half-life by entry:
test.details: In vivo pharmacokinetics in male C57BL/6 mice (IV and PO)
condition.parameters: male, C57BL/6, plasma; mouse, PO, 10 mg/kg; read-out: Apparent t1/2 (converted)
Please reply with the bare figure in h and do not write the unit itself.

Below are worked cases with known answers.
smiles_str=[2H]C([2H])(c1c[nH]c2cccc(O)c12)[C@H]1CCCN1C([2H])([2H])[2H] readout_number=2.71
smiles_str=[2H]C([2H])(c1c[nH]c2cccc(OC)c12)[C@H]1CCCN1C([2H])([2H])[2H] readout_number=3.91

Note down half-life recorded for [2H]C([2H])([2H])N1CCC[C@@H]1Cc1c[nH]c2cccc(O)c12
9.31

Data credit: patent US11453689B2
